// reported interaction score for each item listed
# subject of test: T1, 4H3907-bA
# T1 chain: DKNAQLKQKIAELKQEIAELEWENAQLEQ
# test summary: two-hybrid library CCNG1;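 further: natural log of median RNA to DNA barcode read ratio; higher means stronger binding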
Number, no unit, nothing else.

Use these answered entries as a reference point.
DENAQLEQKIAELKQKNAELKWKIAQLKQ [4H1406-bA] = 0.571
DKIAQLKQEIAELEQKNAELKWENAQLEQ [4H2619-bA] = -0.505

Exercise: I would be grateful if you could share the reported interaction score for DENAQLEQENAELEQKIAELKWEIAQLEQ [4H1193-bA] .
Key: -0.444

Taken from paper PMC10397247.
